# Assay overview: Psilocin-d10 pharmacokinetics in female beagle dogs, oral gavage and intravenous (bolus)
# Condition notes: female, beagle, dog, plasma, iv, 0.2 mg/kg, AUC0-inf, female dog plasma, single IV bolus 0.20 mg/kg, animal 61F
Property: AUC(0-inf) (ng·h/mL)
Write down the numeric answer in ng·h/mL and omit the unit.

Req: Which AUC(0-inf) is reported for this compound? [2H]C([2H])([2H])N(C([2H])([2H])[2H])C([2H])([2H])C([2H])([2H])c1c[nH]c2cccc(O)c12
Resp: 95.8

###

# Assay overview: Psilocin-d10 pharmacokinetics in female beagle dogs, oral gavage and intravenous (bolus)
# Condition notes: female, beagle, dog, plasma, iv, 0.2 mg/kg, Vss, female dog plasma, single IV bolus 0.20 mg/kg, animal 60F
Property: Vd
Number plus unit, in that order.

Req: If you can, please state the reported Vd value of [2H]C([2H])([2H])N(C([2H])([2H])[2H])C([2H])([2H])C([2H])([2H])c1c[nH]c2cccc(O)c12 [Compound I-3] .
Resp: 3.96 L/kg

###

# Assay overview: Psilocin-d10 pharmacokinetics in female beagle dogs, oral gavage and intravenous (bolus)
# Condition notes: female, beagle, dog, plasma, po, 1 mg/kg, AUC0-inf, female dog plasma, single oral gavage 1.00 mg/kg, Median (N=3)
Property: AUC(0-inf) (ng·h/mL)
Write down the numeric answer in ng·h/mL and omit the unit.

Req: Given [2H]C([2H])([2H])N(C([2H])([2H])[2H])C([2H])([2H])C([2H])([2H])c1c[nH]c2cccc(O)c12 [Compound I-3] , state its recorded AUC(0-inf).
Resp: 414

###

# Assay overview: Psilocin-d10 pharmacokinetics in female beagle dogs, oral gavage and intravenous (bolus)
# Condition notes: female, beagle, dog, plasma, iv, 0.2 mg/kg, t1/2, female dog plasma, single IV bolus 0.20 mg/kg, Median (N=3)
Property: half-life (h)
The reply should contain only the number, in h.

Req: Entry [2H]C([2H])([2H])N(C([2H])([2H])[2H])C([2H])([2H])C([2H])([2H])c1c[nH]c2cccc(O)c12 has what half-life?
Resp: 1.41

###

# Assay overview: Plasma pharmacokinetics and bioavailability in rats, oral gavage and intravenous (bolus)
# Condition notes: male, Sprague Dawley, rat, plasma, po, 14 mg/kg
Property: bioavailability

Req: Dear colleague, I am looking for the recorded bioavailability of the following molecule: CN(C)CCc1c[nH]c2cccc(OP(=O)(O)O)c12
Resp: < 0.1%

###

# Assay overview: Psilocin-d10 pharmacokinetics in female beagle dogs, oral gavage and intravenous (bolus)
# Condition notes: female, beagle, dog, plasma, iv, 0.2 mg/kg, volume of distribution at steady state (VSS), dogs, intravenous
Property: Vd
Your answer should be a number followed by the unit of measure.

Req: Give the measured Vd of [2H]C([2H])([2H])N(C([2H])([2H])[2H])C([2H])([2H])C([2H])([2H])c1c[nH]c2cccc(O)c12 [Compound I-3] .
Resp: 4.01 L/kg

###

# Assay overview: Psilocin-d10 pharmacokinetics in female beagle dogs, oral gavage and intravenous (bolus)
# Condition notes: female, beagle, dog, plasma, iv, 0.2 mg/kg, Tmax, female dog plasma, single IV bolus 0.20 mg/kg, Mean (N=3)
Property: Tmax (min)
# output: bare number, implied unit min

Req: Please report the recorded Tmax for [2H]C([2H])([2H])N(C([2H])([2H])[2H])C([2H])([2H])C([2H])([2H])c1c[nH]c2cccc(O)c12 .
Resp: 20
